System: Staphylococcus aureus ATCC29213
METHOD_DESCRIPTION: Minimum Inhibitory Concentration (MIC) testing, broth microdilution, Staphylococcus aureus
Format: cell-based
TEST_CONTEXT: Staphylococcus aureus ATCC29213; read-out: Staphylococcus aureus MICs Activity

COMPOUND | MIC
CC/C=C\CCCCCOc1cccc(C(N)=O)c1 [Example 61, 3-[(Z)-6-Nonenyloxy]benzenecarboxamide] | < 8 µg/mL
NC(=O)c1c(F)ccc(OCc2nc(-c3ccc(Cl)cc3)no2)c1Cl [Example 270] | < 8 µg/mL
CCCC/C=C/CCCCOc1cccc(C(N)=O)c1 [Example 58, 3-[(E)-5-Decenyloxy]benzenecarboxamide] | < 8 µg/mL
NC(=O)c1c(Cl)ccc(OCc2nc3cc(Cl)ccc3s2)c1F [Example 220] | < 8 µg/mL
CCCCCOCCOc1cccc(C(N)=O)c1 [Example 53] | > 64 µg/mL
